System: Streptococcus pyogenes
Test: Antibacterial activity against constitutive macrolide-lincosamide-streptogramin B-resistant Streptococcus pyogenes B0544 by agar microdilution method
Type: functional
observable: MIC (µg/mL)
Enter your answer as a number in µg/mL; do not include the unit.

Field MIC (entry CC[C@H]1OC(=O)[C@H](C)C(=O)[C@H](C)[C@@H](O[C@@H]2O[C@H](C)C[C@H](N(C)C)[C@H]2O)[C@](C)(OCC(O)CN2CCN(c3ccc4ncccc4c3)CC2)C[C@@H](C)NC(=O)[C@H](C)[C@@H](O)[C@]1(C)O (stereo partly drawn) ) reads 4

Field MIC (entry CC[C@H]1OC(=O)[C@H](C)C(=O)[C@H](C)[C@@H](O[C@@H]2O[C@H](C)C[C@H](N(C)C)[C@H]2O)[C@](C)(OCC(O)CNCCCc2ccccc2)C[C@@H](C)NC(=O)[C@H](C)[C@@H](O)[C@]1(C)O (stereo partly drawn) ) reads 16

* * *

Tested on: Streptococcus pyogenes
Assay: Antibacterial activity against inducible macrolide-lincosamide-streptogramin B-resistant Streptococcus pyogenes B0543 by agar microdilution method
Format: functional
observable: MIC (µg/mL)
Enter your answer as a number in µg/mL; do not include the unit.

// compound CC[C@H]1OC(=O)[C@H](C)C(=O)[C@H](C)[C@@H](O[C@@H]2O[C@H](C)C[C@H](N(C)C)[C@H]2O)[C@](C)(OCC(O)CNCCCCc2ccccc2)C[C@@H](C)NC(=O)[C@H](C)[C@@H](O)[C@]1(C)O (mixture of isomers) , assay Streptococcus pyogenes, MIC value: 0.5

// compound CCOc1ccccc1N1CCN(CC(O)CO[C@]2(C)C[C@@H](C)NC(=O)[C@H](C)[C@@H](O)[C@](C)(O)[C@@H](CC)OC(=O)[C@H](C)C(=O)[C@H](C)[C@H]2O[C@@H]2O[C@H](C)C[C@H](N(C)C)[C@H]2O)CC1 (mixture of isomers) , assay Streptococcus pyogenes, MIC value: 8

* * *

Tested on: Staphylococcus aureus
Experiment: Antibacterial activity against erythromycin A-susceptible Staphylococcus aureus B0329 by agar microdilution method
observable: MIC
Express the reported value numerically, then name its unit.

// molecule CC[C@H]1OC(=O)[C@H](C)C(=O)[C@H](C)[C@@H](O[C@@H]2O[C@H](C)C[C@H](N(C)C)[C@H]2O)[C@](C)(OCC(O)CN2CCN(c3ccc(F)cc3)CC2)C[C@@H](C)NC(=O)[C@H](C)[C@@H](O)[C@]1(C)O (some centres not stated) , assay Staphylococcus aureus, MIC value: 4 µg/mL

// molecule CC[C@H]1OC(=O)[C@H](C)C(=O)[C@H](C)[C@@H](O[C@@H]2O[C@H](C)C[C@H](N(C)C)[C@H]2O)[C@](C)(OCC(O)CNCc2ccc3ncccc3c2)C[C@@H](C)NC(=O)[C@H](C)[C@@H](O)[C@]1(C)O (some centres not stated) , assay Staphylococcus aureus, MIC value: 0.5 µg/mL

* * *

System: Streptococcus pyogenes
Experiment: Antibacterial activity against constitutive macrolide-lincosamide-streptogramin B-resistant Streptococcus pyogenes B0544 by agar microdilution method
Format: functional
observable: MIC

Field MIC (entry CC[C@H]1OC(=O)[C@H](C)C(=O)[C@H](C)[C@@H](O[C@@H]2O[C@H](C)C[C@H](N(C)C)[C@H]2O)[C@](C)(OCC(O)CN2CCN(c3ccc(C(C)=O)cc3)CC2)C[C@@H](C)NC(=O)[C@H](C)[C@@H](O)[C@]1(C)O (mixture of isomers) ) reads 32 µg/mL

Field MIC (entry CC[C@H]1OC(=O)[C@H](C)C(=O)[C@H](C)[C@@H](O[C@@H]2O[C@H](C)C[C@H](N(C)C)[C@H]2O)[C@](C)(OCC(O)CNCCc2cccnc2)C[C@@H](C)NC(=O)[C@H](C)[C@@H](O)[C@]1(C)O (stereo partly drawn) ) reads 32 µg/mL

Field MIC (entry CC[C@H]1OC(=O)[C@H](C)C(=O)[C@H](C)[C@@H](O[C@@H]2O[C@H](C)C[C@H](N(C)C)[C@H]2O)[C@](C)(OCC(O)CNCCNc2cnc3ccccc3c2)C[C@@H](C)NC(=O)[C@H](C)[C@@H](O)[C@]1(C)O (mixture of isomers) ) reads 4 µg/mL

Field MIC (entry CC[C@H]1OC(=O)[C@H](C)C(=O)[C@H](C)[C@@H](O[C@@H]2O[C@H](C)C[C@H](N(C)C)[C@H]2O)[C@](C)(OCC(O)CNCCc2ccc([N+](=O)[O-])cc2)C[C@@H](C)NC(=O)[C@H](C)[C@@H](O)[C@]1(C)O (mixture of isomers) ) reads 1 µg/mL

Field MIC (entry CC[C@H]1OC(=O)[C@H](C)C(=O)[C@H](C)[C@@H](O[C@@H]2O[C@H](C)C[C@H](N(C)C)[C@H]2O)[C@](C)(OCC(O)CNCc2cnc3ccccc3c2)C[C@@H](C)NC(=O)[C@H](C)[C@@H](O)[C@]1(C)O (mixture of isomers) ) reads 8 µg/mL

Field MIC (entry CC[C@H]1OC(=O)[C@H](C)C(=O)[C@H](C)[C@@H](O[C@@H]2O[C@H](C)C[C@H](N(C)C)[C@H]2O)[C@](C)(OCC(O)CN2CCN(c3cccc(C(F)(F)F)c3)CC2)C[C@@H](C)NC(=O)[C@H](C)[C@@H](O)[C@]1(C)O (mixture of isomers) ) reads 16 µg/mL

Field MIC (entry CC[C@H]1OC(=O)[C@H](C)C(=O)[C@H](C)[C@@H](O[C@@H]2O[C@H](C)C[C@H](N(C)C)[C@H]2O)[C@](C)(OCC(O)CN[C@H](C)Cc2ccc(OC)cc2)C[C@@H](C)NC(=O)[C@H](C)[C@@H](O)[C@]1(C)O (mixture of isomers) ) reads 8 µg/mL

Field MIC (entry CC[C@H]1OC(=O)[C@H](C)C(=O)[C@H](C)[C@@H](O[C@@H]2O[C@H](C)C[C@H](N(C)C)[C@H]2O)[C@](C)(OCC(O)CN2CCN(c3ccc(F)cc3)CC2)C[C@@H](C)NC(=O)[C@H](C)[C@@H](O)[C@]1(C)O (stereo partly drawn) ) reads > 64 µg/mL

* * *

Test system: Streptococcus pyogenes
Test: Antibacterial activity against constitutive macrolide-lincosamide-streptogramin B-resistant Streptococcus pyogenes B0544 by agar microdilution method
Format: functional
Would you mind telling me the reported MIC of each entry?
Enter your answer as a number in µg/mL; do not include the unit.

Field MIC (entry CC[C@H]1OC(=O)[C@H](C)C(=O)[C@H](C)[C@@H](O[C@@H]2O[C@H](C)C[C@H](N(C)C)[C@H]2O)[C@](C)(OCC(O)CNCc2ccc3ncccc3c2)C[C@@H](C)NC(=O)[C@H](C)[C@@H](O)[C@]1(C)O (stereo partly drawn) ) reads 8

Field MIC (entry CC[C@H]1OC(=O)[C@H](C)C(=O)[C@H](C)[C@@H](O[C@@H]2O[C@H](C)C[C@H](N(C)C)[C@H]2O)[C@](C)(OCC(O)CNCCCc2cccnc2)C[C@@H](C)NC(=O)[C@H](C)[C@@H](O)[C@]1(C)O (stereo partly drawn) ) reads 16

Field MIC (entry CC[C@H]1OC(=O)[C@H](C)C(=O)[C@H](C)[C@@H](O[C@@H]2O[C@H](C)C[C@H](N(C)C)[C@H]2O)[C@](C)(OCC(O)CNCCCCc2ccccn2)C[C@@H](C)NC(=O)[C@H](C)[C@@H](O)[C@]1(C)O (stereo partly drawn) ) reads 32

Field MIC (entry CC[C@H]1OC(=O)[C@H](C)C(=O)[C@H](C)[C@@H](O[C@@H]2O[C@H](C)C[C@H](N(C)C)[C@H]2O)[C@](C)(OC[C@H](O)CNCCNc2ccc3ncccc3c2)C[C@@H](C)NC(=O)[C@H](C)[C@@H](O)[C@]1(C)O ) reads 4

Field MIC (entry CC[C@H]1OC(=O)[C@H](C)C(=O)[C@H](C)[C@@H](O[C@@H]2O[C@H](C)C[C@H](N(C)C)[C@H]2O)[C@](C)(OCC(O)CNc2cnc3ccccc3c2)C[C@@H](C)NC(=O)[C@H](C)[C@@H](O)[C@]1(C)O (stereo partly drawn) ) reads 16

Field MIC (entry CC[C@H]1OC(=O)[C@H](C)C(=O)[C@H](C)[C@@H](O[C@@H]2O[C@H](C)C[C@H](N(C)C)[C@H]2O)[C@](C)(OC)C[C@@H](C)C(=O)[C@H](C)[C@H]2N(CCCCn3cnc(-c4cccnc4)c3)C(=O)O[C@]12C [TELITHROMYCIN] ) reads 4

Field MIC (entry CC[C@H]1OC(=O)[C@H](C)C(=O)[C@H](C)[C@@H](O[C@@H]2O[C@H](C)C[C@H](N(C)C)[C@H]2O)[C@](C)(OCC(O)CN[C@H](C)Cc2ccc([N+](=O)[O-])cc2)C[C@@H](C)NC(=O)[C@H](C)[C@@H](O)[C@]1(C)O (mixture of isomers) ) reads 4

Field MIC (entry CC[C@H]1OC(=O)[C@H](C)C(=O)[C@H](C)[C@@H](O[C@@H]2O[C@H](C)C[C@H](N(C)C)[C@H]2O)[C@](C)(OCC(O)CNCCc2ccccc2)C[C@@H](C)NC(=O)[C@H](C)[C@@H](O)[C@]1(C)O (mixture of isomers) ) reads 16
